# melting point annotations

Some solved cases for reference:
mol=COC(=O)c1ccc(-c2c(CC(=O)Nc3ccc(F)cc3C(F)(F)F)c(=O)oc3cc(Cl)c(C)cc23)cc1 obs_value="202 to 204 °C"
mol=Cc1cc2c(-c3cccc(CCc4nnn[nH]4)c3)c(CC(=O)Nc3ccc(F)cc3C(F)(F)F)c(=O)oc2cc1Cl obs_value="244 to 246 °C"
mol=COC(=O)c1cccc(-c2c(CC(=O)Nc3ccc(F)cc3C(F)(F)F)c(=O)oc3cc(Cl)c(CN4CCN(c5ccccc5)CC4)cc23)c1 obs_value="135 to 137 °C"
mol=CCOC(=O)CNCc1cccc(-c2c(CC(=O)Nc3ccc(F)cc3C(F)(F)F)c(=O)oc3cc(Cl)c(C)cc23)c1 obs_value="153 to 155 °C"
mol=CCOC(=O)CS(=O)(=O)Cc1cccc(-c2c(CC(=O)Nc3ccc(F)cc3C(F)(F)F)c(=O)oc3cc(Cl)c(C)cc23)c1 obs_value="230 to 231 °C"
mol=CCOC(=O)CSCc1cccc(-c2c(CC(=O)Nc3ccc(F)cc3C(F)(F)F)c(=O)oc3cc(Cl)c(C)cc23)c1 obs_value="106 to 108 °C"

# next compound below
Look up melting point for this compound: `O=C(O)/C=C/c1cccc(-c2c(CC(=O)Nc3ccc(F)cc3C(F)(F)F)c(=O)oc3cc(Cl)c(F)cc23)c1`
245 to 247 °C
